Numbers sourced from patent US20260373266A1.

Target: DCAF1 WD40 domain (residues 1077-1390) (Homo sapiens)
Construct: DCAF1 WD40 domain (residues 1077-1390)
Assay: DCAF1 binding assay by SPR (Biacore 8K+), DCAF1-3 KD
Settings: 25 °C, read-out: DCAF1-3 SPR (KD)
Reported Kd values follow for various compounds

Answered examples (5):
OCc1cnc2ccc(N3CCC[C@@H](Nc4cc(N5CCOCC5)ccn4)C3)nn12 [I-696]
10 to 100 µM
Cc1nc(N2CCC[C@@H](Nc3cc(N4CCOCC4)ccn3)C2)nc2ccccc12 [I-415]
10 to 100 µM
COc1ncc(N[C@@H]2CCCN(c3cccc(F)c3)C2)cc1N1CCOCC1 [I-558]
< 10 µM
Fc1cccc(N2CCC[C@H]3[C@@H]2CCN3c2cc(N3CCCCCC3)ccn2)c1 [I-636]
< 10 µM
CCCn1cc(N2CCC[C@@H](Nc3cc(N4CCOCC4)ccn3)C2)cn1 [I-694]
> 200 µM

Asked: Kd lookup needed for Cn1nnnc1-c1ccc(F)c(-c2n[nH]cc2C(=O)N[C@@H](CC(N)=O)c2cccc(Cl)c2)c1 [I-268] , thanks.
Given back: > 200 µM

Asked: Please give the result for c1ccc2cc(N3CCC[C@@H](Nc4nccc(N5CCOCC5)n4)C3)ccc2c1 [I-32] too.
Given back: > 200 µM

Asked: And for COC(C)(c1cc(N2CCOCC2)ccn1)C1CCCN(c2cccc(F)c2)C1 (stereo not drawn) [I-262] ?
Given back: > 200 µM

Asked: Follow-up entry: NC(=O)C[C@H](NC(=O)C1=C(c2c(F)cccc2F)CN(Cc2ccccc2)C1)c1cccc(Cl)c1 [I-587]
Given back: 10 to 100 µM

Asked: And for Fc1cccc(N2CCC[C@@H](N(CCC(F)F)c3cc(N4CCOCC4)ccn3)C2)c1 [I-290] ?
Given back: > 200 µM

Asked: Now this one: COCc1ccc(F)c(-c2[nH]ncc2C(=O)N[C@@H](CC(N)=O)c2cccc(Cl)c2)c1 [I-248]
Given back: 10 to 100 µM

Asked: Same lookup for COC(=O)c1nc(N2CCC[C@@H](Nc3cc(N4CCOCC4)ccn3)C2)ccc1C [I-781] , please.
Given back: 10 to 100 µM

Asked: Please answer likewise for NC(=O)C[C@H](NC(=O)c1cn[nH]c1C(=O)c1ccccc1)c1cccc(Cl)c1 [I-619]
Given back: < 10 µM

Asked: And C[S+]([O-])CN(c1cc(N2CCCOC2)ccn1)[C@H]1CCCN(c2cccc(F)c2)C1 (stereo partly drawn) [I-539] ?
Given back: 10 to 100 µM

Asked: Can you handle C=CC(=O)NCC1CCN(c2ccnc(N3CC[C@@H]4[C@H]3CCCN4c3cccc(F)c3)c2)CC1 [I-665] next?
Given back: 10 to 100 µM

Asked: Also, Fc1cccc(N2CCC[C@@H](Nc3cc(N4CCOCC4)ncn3)C2)c1 [I-1] please.
Given back: 100 to 200 µM

Asked: NCCNC(=O)c1ccc(N2CCCCC2)cc1N[C@@H]1CCCN(c2cccc(F)c2)C1 [I-991] ?
Given back: 10 to 100 µM

Asked: Same question for NC(=O)C[C@H](NC(=O)c1c[nH]c(C(=O)c2ccccc2)c1-c1ccccc1F)c1cccc(Cl)c1 [I-603] please.
Given back: < 10 µM

---

Measured Kd values are reported for all entries that follow.
Target: DCAF1 WD40 domain (residues 1077-1390) (Homo sapiens, UniProt Q9Y4B6)
Construct: DCAF1 WD40 domain (residues 1077-1390)
Sequence (Q9Y4B6 1077-1390): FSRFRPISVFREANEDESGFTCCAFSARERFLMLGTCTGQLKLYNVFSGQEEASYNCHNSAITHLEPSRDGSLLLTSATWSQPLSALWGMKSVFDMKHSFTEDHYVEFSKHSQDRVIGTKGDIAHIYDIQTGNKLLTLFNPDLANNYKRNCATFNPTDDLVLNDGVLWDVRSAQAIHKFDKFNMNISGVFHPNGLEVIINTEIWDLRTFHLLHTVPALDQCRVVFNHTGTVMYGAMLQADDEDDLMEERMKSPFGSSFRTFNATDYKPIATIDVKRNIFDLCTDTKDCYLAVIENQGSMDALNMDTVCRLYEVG
Experiment: DCAF1 binding assay by SPR (Biacore 8K+), DCAF1-3 KD
Conditions: 25 °C, read-out: DCAF1-3 SPR (KD)

Guide cases for Kd, answers given:
Cc1cccc(F)c1-c1[nH]ncc1C(=O)N[C@H](CC(N)=O)c1cc(Cl)cc(Cl)c1 [I-735]
100 to 200 µM
Fc1cccc(N2CCC[C@@H](Nc3cc(N4C[C@@H]5C[C@H]4CO5)ncn3)C2)c1
> 200 µM
OCCCCCCCCC1CCN(c2ccnc(N3CC[C@@H]4[C@H]3CCCN4c3cccc(F)c3)c2)CC1
10 to 100 µM
CN1CCN(c2ccnc(N[C@@H]3CCCN(c4cccc(F)c4)C3)n2)CC1
> 200 µM
Cc1cccc(F)c1-c1c(C(=O)N[C@@H](CC(N)=O)c2cccc(Cl)c2)c[nH]c1-c1ccccn1
< 10 µM
Cc1c(F)ccc(F)c1-c1[nH]ncc1C(=O)N[C@@H](CC(=O)N1CCNCC1)c1cccc(Cl)c1
< 10 µM
NC(=O)C[C@H](NC(=O)c1c[nH]nc1-c1ccccc1O)c1cccc(Cl)c1 [I-334]
10 to 100 µM
NC(=O)CCc1ccc(N2CCC[C@@H](Nc3cc(N4CCOCC4)ccn3)C2)cc1
10 to 100 µM
O=C(O)c1cc2c(N3CCC[C@@H](Nc4cc(N5CCOCC5)ccn4)C3)cccc2s1
> 200 µM
COc1ccc(F)c(-c2[nH]ncc2C(=O)N[C@@H](CC(N)=O)c2cccc(Cl)c2)c1
> 200 µM

Asked: Find the measured Kd: item Cc1sc2c(c1C)C(c1ccc(Cl)cc1)=N[C@@H](CC(=O)NCCOCCOCCOCCOCCCc1ccc(C(=O)c3c(-c4c(F)ccc(F)c4C)c(C(=O)N[C@@H](CS(C)(=O)=O)c4cccc(Cl)c4)cn3C)cc1)c1nnc(C)n1-2 , target or system DCAF1 WD40 domain (residues 1077-1390) (Homo sapiens, UniProt Q9Y4B6).
Given back: < 10 µM

Asked: Repeat with O[C@@H](c1cccc(N2CCC[C@@H](Nc3cc(N4CCOCC4)ccn3)C2)c1)C(F)(F)F
Given back: 10 to 100 µM

---

pKd listing for selected molecules.
Target: DCAF1 WD40 domain (residues 1077-1390) (Homo sapiens, UniProt Q9Y4B6)
Construct: DCAF1 WD40 domain (residues 1077-1390)
Assay: DCAF1 binding assay by SPR (Biacore 8K+), DCAF1-3 KD
Settings: 25 °C, read-out: DCAF1-3 SPR (KD)
pKd: −log10 of the molar value.

# count of solved cases: 4
Cc1cc(Cl)cc([C@@H](CC(N)=O)NC(=O)c2cn[nH]c2-c2c(C)cccc2F)c1 [I-738]
> 5.00
c1ccc(N2CCC[C@@H]3[C@H]2CCN3c2cc(N3CC4CC(C4)C3)ccn2)cc1 [I-708]
> 5.00
C=CC(=O)N1CCCC(c2[nH]ncc2C(=O)N[C@@H](CC(N)=O)c2cccc(Cl)c2)C1 (stereo partly drawn) [I-542]
3.70 to 4.00
NC(=O)CN(c1cc(N2CCOCC2)ccn1)[C@@H]1CCCN(c2cccc(F)c2)C1 [I-272]
< 3.70

Asked: pKd of Fc1cccc(N2CCC[C@@H](Nc3cc(N4CC5(CCC5)C4)ccn3)C2)c1 [I-577] on DCAF1 WD40 domain (residues 1077-1390) (Homo sapiens, UniProt Q9Y4B6)?
Given back: 4.00 to 5.00

---

// pKd lookup, one value per entry
Target: DCAF1 WD40 domain (residues 1077-1390) (Homo sapiens)
Construct: DCAF1 WD40 domain (residues 1077-1390)
Assay: DCAF1 binding assay by SPR (Biacore 8K+), DCAF1-3 KD
Details: 25 °C, read-out: DCAF1-3 SPR (KD)
pKd: −log10 of the molar value.

Cc1c(F)ccc(F)c1-c1c(C(=O)N[C@@H](CC(N)=O)c2cccc(Cl)c2)c[nH]c1C(=O)c1ccc(CCCOCCOCCOCCN)cc1
> 5.00
Cc1c(F)ccc(F)c1-c1c(C(=O)N[C@@H](CC(N)=O)c2cccc(Cl)c2)c[nH]c1S(C)(=O)=O
> 5.00
Fc1cccc(N2CCC[C@@H](Nc3cc(N4CCOCC4)cnn3)C2)c1
< 3.70
Fc1cccc(N2CCCC(n3cnc4nccc(N5CCOCC5)c43)C2)c1 (stereo not drawn)
< 3.70
OCCOCCOCCOCCOCCC1CCCCN1c1ccnc(N2CC[C@@H]3[C@H]2CCCN3c2cccc(F)c2)c1 (stereo partly drawn)
> 5.00

Asked: Checklist item: pKd tested on DCAF1 WD40 domain (residues 1077-1390) (Homo sapiens), entry CCN(c1cc(N2CCOCC2)ncn1)[C@@H]1CCCN(c2cccc(F)c2)C1 , value?
Given back: < 3.70

Asked: Let us now turn to Fc1cccc(N2CCC[C@H]3[C@@H]2CCN3c2cc(N3CC4CC(C4)C3)ccn2)c1
Given back: < 3.70

Asked: What about this compound? Fc1cccc(N2[C@H]3CCC[C@@H]2[C@H](Nc2nccc(N4CCOCC4)n2)CC3)c1 (stereo in doubt)
Given back: < 3.70

Asked: # repeat for Fc1cccc(N2CCC[C@H](N3CCc4c(N5CC6CC(C6)C5)ccnc43)C2)c1
Given back: < 3.70

Asked: Could you do the same for C=CC(=O)N1C[C@H](c2ccc(Br)cc2)[C@@H]1C(=O)Nc1cccc2cccnc12 , please?
Given back: < 3.70

Asked: // same read-out, input: Oc1ccc(F)cc1N1CCC[C@H]2[C@@H]1CCN2c1cc(N2CCCCC2)ccn1
Given back: 4.00 to 5.00
